Each entry below carries its reported pEC50.
# TESTED TARGET: Human M4 (Homo sapiens, UniProt P08173)
# Sequence (P08173 whole entry): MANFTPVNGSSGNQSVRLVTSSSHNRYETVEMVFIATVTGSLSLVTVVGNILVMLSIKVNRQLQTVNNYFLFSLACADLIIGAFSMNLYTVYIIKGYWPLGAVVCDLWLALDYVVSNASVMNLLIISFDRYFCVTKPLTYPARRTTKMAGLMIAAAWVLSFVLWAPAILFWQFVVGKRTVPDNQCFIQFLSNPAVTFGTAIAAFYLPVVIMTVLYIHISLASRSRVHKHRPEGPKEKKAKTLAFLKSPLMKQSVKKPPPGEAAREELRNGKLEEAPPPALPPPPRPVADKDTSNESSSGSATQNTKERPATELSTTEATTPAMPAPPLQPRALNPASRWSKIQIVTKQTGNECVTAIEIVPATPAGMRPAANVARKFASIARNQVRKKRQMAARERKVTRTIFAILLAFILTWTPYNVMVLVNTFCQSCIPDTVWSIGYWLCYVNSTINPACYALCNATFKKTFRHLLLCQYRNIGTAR
# EXPERIMENT DESCRIPTION: mAChR M4 cell-based functional assay (calcium flux, PAM mode)
# COND: hM4-Gqi5 CHO-K1 cells; concentration-dependent increase in the EC20 acetylcholine response
pEC50: −log10 of the molar value.

MOLECULE | pEC50
Cc1c(N2CCC(Oc3ccc(Cl)cc3)CC2)nn2c(=O)ccnc2c1C | 6.57
[2H]C1(Oc2ccc3c(c2)OCO3)CCN(c2nn3c(=O)ccnc3cc2C)CC1 | 6.54
[2H]C1(Oc2ccc3c(c2)OC([2H])([2H])C([2H])([2H])O3)CCN(c2nn3c(=O)ccnc3c(C)c2C2CC2)CC1 | 5.85
[2H]C1(Oc2ccc3c(c2)OCCO3)CCN(c2nn3c(=O)c(C)c(C)nc3cc2C)CC1 | 7.55
COc1ncc(OC2CCN(c3nn4c(=O)ccnc4cc3C)CC2)cc1C | 5.82
[2H]C1([2H])Oc2ccc(O[C@H]3CCN(c4nn5c(=O)ccnc5cc4C)C[C@@H]3F)cc2OC1([2H])[2H] | 7.28
Cc1c(N2CCC(Oc3ccc4c(c3)OCCO4)CC2)nn2c(=O)ccnc2c1N1CCC1 | 5.80
[2H]C1(Oc2ccc3c(c2)OCCO3)CCN(c2nn3c(=O)ccnc3cc2C)CC1 | 7.34
[2H]C1(Oc2ccc3c(c2)OC([2H])([2H])C([2H])([2H])O3)CCN(c2nn3c(=O)cc(C(F)(F)F)nc3c(C)c2C)CC1 | 7.14
[2H]C1(Oc2ccc3c(c2)OC([2H])([2H])C([2H])([2H])O3)CCN(c2nn3c(=O)ccnc3c(C)c2C)CC1 | 7.70
Cc1cc2nccc(=O)n2nc1N1CCC(Oc2ccc3c(c2)OCCO3)CC1 | 7.18
[2H]C1([2H])Oc2ccc(OC3CCN(c4nn5c(=O)ccnc5c(C)c4C4CC4)CC3)cc2OC1([2H])[2H] [Compound 21] | 5.68
[2H]C1([2H])Oc2cc(OC3CCN(c4nn5c(=O)ccnc5cc4C)CC3)cc(C)c2OC1([2H])[2H] | 6.54
Cc1cc2nccc(=O)n2nc1N1CCC(Oc2ccc(F)cc2)CC1 | 6.53
[2H]C1([2H])Oc2ccc(OC3CCN(c4nn5c(=O)cc(C(F)F)nc5cc4C)CC3)cc2OC1([2H])[2H] | 7.72

* * *

Each entry below carries its reported pEC50.
# TESTED TARGET: Human M4 (Homo sapiens)
# EXPERIMENT DESCRIPTION: mAChR M4 cell-based functional assay (calcium flux, PAM mode)
# COND: hM4-Gqi5 CHO-K1 cells; concentration-dependent increase in the EC20 acetylcholine response
pEC50: −log10 of the molar value.
MEASUREMENT NAME: pEC50

COMPOUND | EXPERIMENTAL VALUE
Cc1c(N2CC[C@H](Oc3ccc4c(c3)OCCO4)C[C@H]2C)nn2c(=O)ccnc2c1C [Compound 134] | 7.60
[2H]C1(Oc2ccc3c(c2)OCCO3)CCN(c2nn3c(=O)ccnc3c(C)c2C)CC1 [Compound 70] | 7.80
Cc1cc2nccc(=O)n2nc1N1CC[C@@H](Oc2ccc3c(c2)OCCO3)[C@@H](F)C1 [Compound 34] | 7.15
[2H]C1([2H])Oc2ccc(O[C@H]3CCN(c4nn5c(=O)cc(COC)nc5c(C)c4C)C[C@@H]3F)cc2OC1([2H])[2H] [Compound 120] | 6.79
[2H]C1(Oc2ccc3c(c2)OC([2H])([2H])C([2H])([2H])O3)CCN(c2nn3c(=O)cc(COC)nc3cc2C)CC1 [Compound 109] | 7.72
[2H]C1(Oc2ccc3c(c2)OC([2H])([2H])C([2H])([2H])O3)CCN(c2nn3c(=O)cc(C(F)F)nc3cc2C)CC1 [Compound 65] | 7.70
[2H]C1([2H])Oc2ccc(O[C@H]3CCN(c4nn5c(=O)c(F)c(C)nc5cc4C)C[C@@H]3F)cc2OC1([2H])[2H] [Compound 38] | 6.68
[2H]C1([2H])Oc2ccc(OC3CCN(c4nn5c(=O)ccnc5c(COC)c4C)CC3)cc2OC1([2H])[2H] [Compound 19] | 6.34
Cc1cc2nccc(=O)n2nc1N1CC[C@@H](Oc2ccc3c(c2)CCOC3)[C@H](F)C1 [Compound 54] | 6.50
[2H]C1(Oc2ccc3c(c2)OC([2H])([2H])C([2H])([2H])O3)CCN(c2nn3c(=O)cc(C(F)(F)F)nc3cc2C)CC1 [Compound 45] | 7.59
[2H]C1(Oc2ccc3c(c2)OCCO3)CCN(c2nn3c(=O)c(F)c(C)nc3cc2C)CC1 [Compound 50] | 8.05
[2H]C1([2H])Oc2ccc(OC3CCN(c4nn5c(=O)c(F)c(C)nc5c(C)c4C)CC3)cc2OC1([2H])[2H] [Compound 16] | 7.04
Cc1cc2nccc(=O)n2nc1N1CC[C@@H](Oc2ccc3c(c2)OCCC3)[C@H](F)C1 [Compound 57] | 6.83
[2H]C1(Oc2ccc3c(c2)OCCCO3)CCN(c2nn3c(=O)cc(C(F)F)nc3cc2C)CC1 [Compound 67] | 7.77

The origin of these recorded values is patent US11884676B2.
